assay: Selectivity ratio of CC50 for monkey LLC-MK2 cells to IC50 for epimastigote stage of epimastigote stage of Trypanosoma cruzi Y; type: ADME, cell-based; conditions: read-out: Ratio CC50/IC50
TEST_READOUT: selectivity ratio
// return a plain number; no unit text

// worked examples, selectivity ratio included
COc1ccc2nc(Cl)c(NCc3ccccc3)nc2c1: 22.2
CSc1nc2ccc(Cl)cc2nc1Cl: 16.1
c1ccc(-c2nc3ccccc3nc2-c2ccc(OCCN3CCOCC3)cc2)cc1: 4.6

Recorded selectivity ratio of COc1ccc2nc(SC)c(NC3CCCCC3)nc2c1 , please.
1.8

Recorded selectivity ratio of C[S+]([O-])c1nc2ccc(Cl)cc2nc1Cl (configuration not stated) , please.
54.2

Recorded selectivity ratio of CCCCNc1nc2cc(Cl)ccc2nc1S(C)(=O)=O , please.
93.4

Recorded selectivity ratio of CSc1nc2ccc(Cl)cc2nc1NC1CCCCC1 , please.
4.8

Recorded selectivity ratio of CCCCNc1nc2cc(OC)ccc2nc1S(C)(=O)=O , please.
1.6

Recorded selectivity ratio of COc1ccc(-c2nc3ccccc3nc2-c2ccc(OC)cc2)cc1 , please.
9

----------
The reader will find reported selectivity ratio values listed item by item below.
assay: Selectivity ratio of CC50 for monkey LLC-MK2 cells to IC50 for epimastigote stage of epimastigote stage of Trypanosoma cruzi Y
// return a plain number; no unit text

COc1ccc2nc(Cl)c(SC)nc2c1: 19.3
CCCCNc1nc2cc(Cl)ccc2nc1S(C)(=O)=O: 93.4
CS/C(=C/[N+](=O)[O-])Nc1ccc(Cl)cc1: 7.3
CCCCNc1nc2ccccc2nc1S(C)(=O)=O: 5.5

Recorded selectivity ratio of CSc1nc2ccc(Cl)cc2nc1NC1CCCCC1 , please.
4.8

Recorded selectivity ratio of CCCCNc1nc2cc(OC)ccc2nc1SC , please.
1.1

Recorded selectivity ratio of CS(=O)(=O)c1nc2ccc(Cl)cc2nc1NC1CCCCC1 , please.
38.3

----------
test: Selectivity ratio of CC50 for monkey LLC-MK2 cells to IC50 for epimastigote stage of epimastigote stage of Trypanosoma cruzi Y; format: ADME, cell-based; settings: read-out: Ratio CC50/IC50
Label MET for high-side selectivity ratio (at or above 20) and NOT MET for low-side selectivity ratio (below it).

Examples with answers:
CCCCNc1nc2ccc(OC)cc2nc1NCc1ccccc1: NOT MET
COc1ccc2nc(S(C)(=O)=O)c(NCCC(C)C)nc2c1: NOT MET
COc1ccc2nc(NC3CCCCC3)c(S(C)(=O)=O)nc2c1: MET
COc1ccc2nc(S(C)(=O)=O)c(NCC(C)C)nc2c1: NOT MET
COc1ccc2nc(N(C)C)c(SC)nc2c1: NOT MET

Proceed to the following item.
Could you verify whether the entry CCCCNc1nc2ccc(OC)cc2nc1S(C)(=O)=O shows selectivity ratio of no less than 20?
MET

----------
experiment: Selectivity ratio of CC50 for monkey LLC-MK2 cells to IC50 for epimastigote stage of epimastigote stage of Trypanosoma cruzi Y; format: ADME, cell-based; conditions: read-out: Ratio CC50/IC50
Param label: returns y when selectivity ratio < 3, returns n otherwise, including exact equality.

CCCCNc1nc2cc(Cl)ccc2nc1SC: y

Is it true that selectivity ratio reported for C[S+]([O-])c1nc2ccc(Cl)cc2nc1NC1CCCCC1 (stereo not drawn) is less than 3?
n

Is it true that selectivity ratio reported for COc1ccc2nc(NCC(C)C)c(SC)nc2c1 is less than 3?
y

Is it true that selectivity ratio reported for Cc1ccc(-c2nc3cc(Cl)c(Cl)cc3nc2-c2ccccc2)cc1 is less than 3?
y

Is it true that selectivity ratio reported for CS(=O)(=O)c1nc2ccc(Br)cc2nc1NCCO is less than 3?
n

Is it true that selectivity ratio reported for COc1ccc2nc(S(C)(=O)=O)c(NC3CCCCC3)nc2c1 is less than 3?
y

Is it true that selectivity ratio reported for Clc1ccc2nc(-c3ccccc3)c(-c3ccccc3)nc2c1 is less than 3?
n

Is it true that selectivity ratio reported for COc1ccc2nc(NC3CCCCC3)c(SC)nc2c1 is less than 3?
n

----------
experiment: Selectivity ratio of CC50 for monkey LLC-MK2 cells to IC50 for epimastigote stage of epimastigote stage of Trypanosoma cruzi Y
The reader will find reported selectivity ratio values listed item by item below.
// return a plain number; no unit text

CCCCNc1nc2cc(OC)ccc2nc1-c1ccccc1: 12.5
Cc1ccc(-c2nc3cc(Cl)c(Cl)cc3nc2-c2ccccc2)cc1: 1.3
CCCCNc1nc2ccc(OC)cc2nc1NCCCC: 3.2
COc1ccc2nc(NCC(C)C)c(SC)nc2c1: 1
COc1ccc2nc(NCCO)c(S(C)(=O)=O)nc2c1: 25.2

Recorded selectivity ratio of C[S+]([O-])c1nc2ccc(Cl)cc2nc1NC1CCCCC1 (stereo not given) , please.
21.8

Recorded selectivity ratio of COc1ccc2nc(NC3CCCCC3)c([S+](C)[O-])nc2c1 (stereo not given) , please.
72.8

Recorded selectivity ratio of COc1ccc2nc(S(C)(=O)=O)c(Cl)nc2c1 , please.
7.5

Recorded selectivity ratio of COc1ccc2nc(S(C)(=O)=O)c(NCC(C)C)nc2c1 , please.
1.5

Recorded selectivity ratio of COc1ccc2nc(NC3CCCCC3)c(SC)nc2c1 , please.
8.5

// data source = ChEMBL document CHEMBL3396970
